B1: LINE1-mini (parent)
chain: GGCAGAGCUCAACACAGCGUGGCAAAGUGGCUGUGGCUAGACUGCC

# Variants of: B1
# protocol: self-cleavage, relative activity (ratio to wild type); higher = more cleavage; in vitro, sequencing; the parent is a self-cleaving ribozyme
Categories are defined by ranges of self-cleavage, namely low = under 0.08, medium = from 0.08 up to 0.3, high = 0.3 and over

These solved cases illustrate the format of a correct answer.
G17C C31A	high
G29U U32A	high
A11U A24G	medium
C15U G33C	medium
A4C U32G	medium

Query: Given C15U G30U , name the class its self-cleavage places it in.
Reply: high

Query: Given C18U G22A , name the class its self-cleavage places it in.
Reply: high

Query: Given A4G G22A , name the class its self-cleavage places it in.
Reply: high

Query: Given C23A G29A , name the class its self-cleavage places it in.
Reply: high

Query: Given G36U C37U , name the class its self-cleavage places it in.
Reply: low

Query: Given G36A C37A , name the class its self-cleavage places it in.
Reply: medium

These data points were gathered from the RNAGym collection of RNA variant scans (doi:10.7554/elife.90254).
